A collection of compounds and their measured CNP (Rf, control NP plate)
assay-procedure: NP TLC on non-impregnated control plates
Assay type: physicochemical
stated-conditions: Table S3, non-impregnated NP plate; acetonitrile/acetate buffer pH 7.4/methanol 60:20:20
Respond numerically, and do not add a unit to the figure.

Worked cases, CNP (Rf, control NP plate) given:
compound	reported-value
C[C@H]1c2cccc(O)c2C(=O)C2=C(O)[C@]3(O)C(=O)C(C(N)=O)=C(O)[C@@H](N(C)C)[C@@H]3[C@@H](O)[C@@H]21	0.06
O=C(O)COC(=O)Cc1ccccc1Nc1c(Cl)cccc1Cl	0.89
Nc1nnc(-c2cccc(Cl)c2Cl)c(N)n1	0.89
C[C@]12CC[C@@H]3c4ccc(OC(=O)c5ccccc5)cc4CC[C@H]3[C@@H]1CC[C@@H]2O [estradiol benzoate]	0.97
CN(C)CCOC(c1ccccc1)c1ccccc1 [diphenhydramin]	0.42

For the next question, use this compound.
Looking for the measured CNP (Rf, control NP plate) of `CO/N=C(\C(=O)N[C@@H]1C(=O)N2C(C(=O)O)=C(COC(N)=O)CS[C@H]12)c1ccco1` , can you help?
0.97

* * *

assay-procedure: HPLC on immobilized artificial membrane column (HPLCIAM)
Type: physicochemical
stated-conditions: Table S5, IAM column, pH 7.4
measured-parameter: log k IAM
Output: the number by itself.

Sample answers from the record:
molecule	log k IAM
CCOC(=O)C1=C(COCCN)NC(C)=C(C(=O)OC)C1c1ccccc1Cl (centres unmarked) [amlodipine]	2.00
CCCC(CCC)C(=O)O [valproic acid]	-1.09
CN1C(=O)C(O)N=C(c2ccccc2)c2cc(Cl)ccc21 (centres unmarked) [temazepam]	0.83
CCC[C@H](N[C@@H](C)C(=O)N1[C@H](C(=O)O)C[C@@H]2CCCC[C@@H]21)C(=O)OCC [perindopril]	-0.76
Nc1nc2c(ncn2COCCO)c(=O)[nH]1 [aciclovir]	-1.04

// lookup log k IAM for CN1CCC(=C2c3ccccc3C=Cc3ccccc32)CC1 [cyproheptadine]
1.38

Fill in: log k IAM of CC(C)NCC(O)COc1cccc2ccccc12 (centres unmarked) [propranolol] is ___
1.45

Need log k IAM of CCOC(=O)[C@H](CCc1ccccc1)N[C@@H](C)C(=O)N1Cc2ccccc2C[C@H]1C(=O)O [quinapril] , thanks.
0.09

Sample CN(C)CCC[C@@]1(c2ccc(F)cc2)OCc2cc(C#N)ccc21 [escitalopram] — what was its log k IAM?
1.51

GET /values?readout=log k IAM&item= CC(C)NCC(O)COc1cccc2[nH]ccc12 (centres unmarked) [pindolol]
0.78

Consider the molecule Cc1cnc(NC(=O)C2=C(O)c3ccccc3S(=O)(=O)N2C)s1 [meloxicam] and give its measured log k IAM.
-0.31

* * *

assay-system: human serum albumin (HSA) (Homo sapiens)
Sequence (P02768 25-609): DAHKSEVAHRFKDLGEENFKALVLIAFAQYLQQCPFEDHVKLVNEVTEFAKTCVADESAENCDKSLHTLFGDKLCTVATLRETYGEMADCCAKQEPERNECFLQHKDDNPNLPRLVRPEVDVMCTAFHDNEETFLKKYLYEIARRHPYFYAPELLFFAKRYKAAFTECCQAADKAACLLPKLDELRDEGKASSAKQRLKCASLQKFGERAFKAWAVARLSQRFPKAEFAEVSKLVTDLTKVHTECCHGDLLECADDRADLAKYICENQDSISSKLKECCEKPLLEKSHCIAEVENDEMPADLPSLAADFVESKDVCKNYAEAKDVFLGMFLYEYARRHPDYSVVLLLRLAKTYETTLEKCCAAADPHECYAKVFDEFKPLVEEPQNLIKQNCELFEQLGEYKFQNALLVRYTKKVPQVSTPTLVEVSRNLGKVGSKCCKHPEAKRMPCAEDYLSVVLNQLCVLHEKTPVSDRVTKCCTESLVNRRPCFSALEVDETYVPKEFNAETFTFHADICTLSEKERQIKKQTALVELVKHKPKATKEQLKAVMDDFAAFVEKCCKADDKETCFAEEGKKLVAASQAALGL
assay-procedure: in vitro
stated-conditions: immobilized hsa column, pH 7.4
measured-parameter: chromatographic logD
Just the number, please, no unit after it.

compound	assay-system	chromatographic logD
CN1CCN2c3ncccc3Cc3ccccc3C2C1 (centres unmarked)	human serum albumin (HSA) (Homo sapiens)	0.47

What does the data say about its chromatographic logD? Entry: `Clc1cccc(Cl)c1N=C1NCCN1`
0.13

Would you kindly share the measured chromatographic logD for `CC(=O)Oc1ccccc1C(=O)O` ?
-0.51

Quick one: chromatographic logD for `CNCC[C@H](Oc1cccc2ccccc12)c1cccs1` ?
0.91

* * *

assay-procedure: HPLC on immobilized artificial membrane column (HPLCIAM)
Assay type: physicochemical
stated-conditions: Table S5, retention factor, IAM column, phosphate buffer pH 7.4/acetonitrile 80:20
# binning rule on k IAM: low bin = under 0.9, mid bin = from 0.9 up to 10, high bin = 10 and over

Solved entries (count: 6):
compound	cat
CN1C(=O)C(O)N=C(c2ccccc2)c2cc(Cl)ccc21 (stereo not drawn)	mid bin
CC(=O)Oc1ccccc1C(=O)O	low bin
O=C(CCCN1CCC(O)(c2ccc(Cl)cc2)CC1)c1ccc(F)cc1	high bin
CCCc1nn(C)c2c(=O)[nH]c(-c3cc(S(=O)(=O)N4CCN(C)CC4)ccc3OCC)nc12	high bin
CCN(CC)C(=O)Nc1ccc(OCC(O)CNC(C)(C)C)c(C(C)=O)c1 (stereo not drawn)	mid bin
CN(C)CCC[C@@]1(c2ccc(F)cc2)OCc2cc(C#N)ccc21	high bin

Please report the category associated with CC(C)NCC(O)COc1cccc2[nH]ccc12 (stereo not drawn) , nothing else.
mid bin

Please report the category associated with `Cc1ccc(O)c([C@H](CCN(C(C)C)C(C)C)c2ccccc2)c1` , nothing else.
low bin

* * *

assay-system: human serum albumin (HSA) (Homo sapiens)
assay-procedure: in vitro
stated-conditions: immobilized hsa column, pH 7.4
measured-parameter: chromatographic logD
Could you respond with only the numeric value?

Solved entries:
compound	reported-value
CN1CCN(C(=O)OC2c3nccnc3C(=O)N2c2ccc(Cl)cn2)CC1 (stereo not shown) [zopiclone]	-0.12
Cc1cncc(CN2CCC(=C3c4ccc(Cl)cc4CCc4cccnc43)CC2)c1 [rupatadine]	1.09
OCCN1CCN(CC/C=C2/c3ccccc3Sc3ccc(Cl)cc32)CC1 [zuclopenthixol]	1.21

We now examine a further compound.
So what does the record say about chromatographic logD for O=C(c1ccccc1)c1ccc2n1CCC2C(=O)O (stereo not shown) [ketorolac] ?
0.98
